meta.source: patent US20090035322A1

Target: T1, human CD20 (human, UniProt P11836 1-297)
T1 sequence: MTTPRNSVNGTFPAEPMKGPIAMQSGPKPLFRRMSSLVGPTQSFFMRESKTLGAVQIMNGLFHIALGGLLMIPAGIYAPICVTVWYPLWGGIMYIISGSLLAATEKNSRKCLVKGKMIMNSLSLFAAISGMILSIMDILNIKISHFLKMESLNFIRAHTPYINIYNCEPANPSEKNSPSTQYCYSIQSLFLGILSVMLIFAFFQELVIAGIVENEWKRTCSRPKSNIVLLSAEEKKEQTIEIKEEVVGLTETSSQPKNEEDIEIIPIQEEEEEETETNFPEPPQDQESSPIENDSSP
Experiment: cell-based or functional assay
result-type: % Cytotoxicity (CDC, Daudi), 1 hour (%)
Could you give me the number in %? Just the number is fine.

What measured % Cytotoxicity (CDC, Daudi), 1 hour goes with rituximab (RITUXAN, IDEC Pharmaceuticals Corp.) (antibody, V domains shown) VH: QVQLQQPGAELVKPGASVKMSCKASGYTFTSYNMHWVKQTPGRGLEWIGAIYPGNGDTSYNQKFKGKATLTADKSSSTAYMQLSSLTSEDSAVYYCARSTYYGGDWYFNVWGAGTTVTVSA VL: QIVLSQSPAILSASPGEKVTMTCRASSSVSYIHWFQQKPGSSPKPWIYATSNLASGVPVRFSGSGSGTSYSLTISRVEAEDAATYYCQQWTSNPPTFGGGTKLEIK ?
86.9

For the binder shown here, 2B7-7 (antibody, V domains shown, Fully human IgG, constant region not specified; also called 2B7-7N) VH: EVQLVESGGGLVQPGRSLRLSCAASGFTFRDYTMHWVRQGPGKGLEWVSGISWNSDYIGYADSVKGRFTISRDNAKNSLYLQMNSLRVEDTALYYCAKLSGTYRDYFYGVDVWGQGTTVTVSS VL: EIVLTQSPATLSLSPGERAALSCRASQSVSNYLAWYQQKPGQAPRLLIYDASNRATGIPARFSGSGSGTDFTLTISSLEPEDFAVYYCQQRSNWPLTFGGGTKVEIR , give the reported % Cytotoxicity (CDC, Daudi), 1 hour.
99.4

Please give the measured % Cytotoxicity (CDC, Daudi), 1 hour for this binder: 9D4-7 (antibody, V domains shown, Fully human IgG, constant region not specified; also called 9D4-7N) VH: EVQLVESGGGLVQPGRSLRLSCAASGFTFYDYAMHWVRQAPGKGLEWVSGISWNSDTIGYADSVKGRFTISRDNAKNSLYLQMNSLRAEDTALYYCTKDGSYGHFYSGLDVWGQGTTVTVSS VL: EIVLTQSPATLSLSPGERATLSCRASQSVSSYLAWYQQKPGQAPRLLIYVASNRATGIPARFSGSGSGTDFTLTISSLEPDDFAVYYCQQRYYWPLTFGGGTKVEIK
99

Quick check: % Cytotoxicity (CDC, Daudi), 1 hour of 8G6-5 (antibody, V domains shown, Fully human IgG, constant region not specified; also called 8G6-5N) VH: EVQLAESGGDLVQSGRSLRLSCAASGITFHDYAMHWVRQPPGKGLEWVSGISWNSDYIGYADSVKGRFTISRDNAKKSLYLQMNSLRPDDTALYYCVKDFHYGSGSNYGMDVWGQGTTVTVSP VL: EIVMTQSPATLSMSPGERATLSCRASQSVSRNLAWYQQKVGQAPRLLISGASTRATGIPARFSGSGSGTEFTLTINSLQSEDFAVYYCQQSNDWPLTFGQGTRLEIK ?
99.2
